Biological target: purified wild type MGL (wt-MGLL 6H-11-313) (Homo sapiens)
Sequence (Q99685 1-303): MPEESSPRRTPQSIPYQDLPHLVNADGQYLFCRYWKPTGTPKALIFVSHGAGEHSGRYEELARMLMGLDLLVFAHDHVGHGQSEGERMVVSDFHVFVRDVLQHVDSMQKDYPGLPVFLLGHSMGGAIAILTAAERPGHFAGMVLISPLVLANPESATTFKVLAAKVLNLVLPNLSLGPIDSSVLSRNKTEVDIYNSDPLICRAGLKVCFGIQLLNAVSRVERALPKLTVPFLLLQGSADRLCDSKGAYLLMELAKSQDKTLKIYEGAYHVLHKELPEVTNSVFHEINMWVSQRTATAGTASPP
pIC50: −log10 of the molar value.
MEASURED_QUANTITY: pIC50

SMILES_REPR	pIC50
COc1cncc(-c2ccc3[nH]c(C(=O)N4CC(N5CCN(C(=O)c6nccs6)CC5)C4)c(C)c3c2)c1	7.18

P: Cn1ccc2cc(C(=O)N3CC(N4CCN(C(=O)c5nccs5)CC4)C3)cc(Br)c21
Q: O=C(c1cscn1)N1CCN(C2CN(C(=O)c3[nH]c4nc(C(F)(F)F)ccc4c3Br)C2)CC1
Of the two listed items, P and Q , which carries the larger pIC50 figure? Pick one and reply with its label.
P
(P: 7.57, Q: 6.07)

P: O=C(c1ccccc1)N1CCN(C2CN(C(=O)c3ccc(Sc4cccc(C(F)(F)F)c4)cc3)C2)CC1
Q: Cn1ccc2cc(C(=O)N3CC(N4CCN(C(=O)c5nccs5)CC4)C3)cc(-c3cccc(C(F)(F)F)c3)c21
Hi! Which is lower in terms of pIC50, the first one P or the second one Q ? Pick one and reply with its label.
P
(P: 7.63, Q: 8.22)

A: O=C(c1cccc(NCc2ccccc2)c1)N1CC(N2CCN(C(=O)c3nccs3)CC2)C1
B: COCCOc1ccc(C(=O)N2CC(N3CCN(C(=O)c4nccs4)CC3)C2)cc1
Of the two listed items, A and B , which carries the larger pIC50 figure? Pick one and reply with its label.
A
(A: 6.87, B: 5.97)

---

Target: MGL (Rattus norvegicus)
Construct: one g rat brain was homogenized using a Polytron homogenizer; from tissue; host or cells: rat brain homogenate
Sequence (Q8R431 whole entry): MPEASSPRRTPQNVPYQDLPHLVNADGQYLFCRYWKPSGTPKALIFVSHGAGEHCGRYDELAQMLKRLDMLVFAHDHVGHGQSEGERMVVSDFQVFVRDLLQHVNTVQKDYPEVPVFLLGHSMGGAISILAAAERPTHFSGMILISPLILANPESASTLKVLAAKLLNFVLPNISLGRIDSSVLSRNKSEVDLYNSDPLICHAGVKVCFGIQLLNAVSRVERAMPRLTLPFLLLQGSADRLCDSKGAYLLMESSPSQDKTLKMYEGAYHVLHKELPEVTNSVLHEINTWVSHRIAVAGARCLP
Test: 2-AG accumulation assay in rat brain homogenate
Type: biochemical
Conditions: rat brain homogenate; compound 1 μM; 2-AG accumulation as percent of vehicle; read-out: Rat Brain 2AG % VehCntrl (%) @ 1 μM
MEASURED_QUANTITY: 2-AG accumulation, % of vehicle control at 1 µM (%)

Examples with their reported 2-AG accumulation, % of vehicle control at 1 µM follow.
SMILES_REPR	DATA_VALUE
Cn1cc(I)c2ccc(C(=O)N3CC(N4CCN(C(=O)c5nccs5)CC4)C3)cc21	475
O=C(c1ccc2c(ccn2-c2cc(F)cc(F)c2)c1)N1CC(N2CCN(C(=O)c3nccs3)CC2)C1	827
O=C(c1ccccc1)N1CCN(C2CN(C(=O)c3ccc(S(=O)(=O)c4cccc(C(F)(F)F)c4)cc3)C2)CC1	119
O=C(c1cscn1)N1CCN(C2CN(C(=O)c3nn(-c4ccc(Cl)cc4Cl)c4c3CCC/C4=C\c3ccc(Cl)cc3)C2)CC1	262

I: O=C(c1csnn1)N1CC(N2CCN(C(=O)c3cc4cc(C(F)(F)F)ccc4s3)CC2)C1
II: Cc1nc(-c2cccc(C(F)(F)F)c2)sc1C(=O)N1CC(N2CCN(C(=O)c3cscn3)CC2)C1
Hi! Which is lower in terms of 2-AG accumulation, % of vehicle control at 1 µM, the first one I or the second one II ? Pick one and reply with its label.
I

---

Test system: CFA-induced paw radiant heat hypersensitivity
Assay: CFA-induced paw radiant heat hypersensitivity
Type: in vivo, rat
Details: Rattus norvegicus, po; 30 mg/kg p.o., HPβCD, group mean values, last time point 180 or 300 min; read-out: CFA thermal hypersensitivity Method 1: peak % reversal
Below, each entry is listed with its recorded inhibition in vivo at 30 mg/kg.
The figure you give is taken to be in %; do not add the unit.

Examples with their reported inhibition in vivo at 30 mg/kg follow.
SMILES_REPR	UNIT_OF_MEASUREMENT	DATA_VALUE
O=C(c1ccc(-c2cccc(C(F)(F)F)c2)c(F)c1)N1CC(N2CCN(C(=O)c3cscn3)CC2)C1	%	25.7
O=C(c1ccc2nc(-c3ccccc3)sc2c1)N1CC(N2CCN(C(=O)c3cscn3)CC2)C1	%	16.3
O=C(c1cscn1)N1CCN(C2CN(C(=O)c3sc4cc(Br)ccc4c3Cl)C2)CC1	%	27.7
Cc1c(C(=O)N2CC(N3CCN(C(=O)c4nccs4)CC3)C2)sc2cc(C(F)(F)F)ccc12	%	80.1
O=C(c1ccccc1)N1CCN(C2CN(C(=O)c3ccc(-c4ccc(Cl)c(Cl)c4)cc3)C2)CC1	%	39.1

Please report the recorded inhibition in vivo at 30 mg/kg for `Cc1c(C(=O)N2CC(N3CCN(C(=O)c4ccc[nH]4)CC3)C2)sc2cc(C(F)(F)F)ccc12` .
66

Please report the recorded inhibition in vivo at 30 mg/kg for `O=C(c1cscn1)N1CCN(C2CN(C(=O)c3ccc(-c4ccccc4)cc3Cl)C2)CC1` .
44.7

Please report the recorded inhibition in vivo at 30 mg/kg for `O=C(c1ccc2nc(-c3ccc(C(F)(F)F)cc3)oc2c1)N1CC(N2CCN(C(=O)c3nccs3)CC2)C1` .
41

Please report the recorded inhibition in vivo at 30 mg/kg for `Cc1nc(-c2ccc(Cl)cc2)sc1C(=O)N1CC(N2CCN(C(=O)c3nccs3)CC2)C1` .
27.1

Please report the recorded inhibition in vivo at 30 mg/kg for `O=C(c1nccs1)N1CCN(C2CN(C(=O)c3sc4cc(Br)ccc4c3Cl)C2)CC1` .
17.3

Please report the recorded inhibition in vivo at 30 mg/kg for `O=C(c1ccc2c(ccn2-c2ccc(F)c(F)c2)c1)N1CC(N2CCN(C(=O)c3nccs3)CC2)C1` .
186

Please report the recorded inhibition in vivo at 30 mg/kg for `O=C(c1ccc(Oc2cccc(Cl)c2)c(F)c1)N1CC(N2CCN(C(=O)c3cscn3)CC2)C1` .
21

Please report the recorded inhibition in vivo at 30 mg/kg for `O=C(c1ccc(-c2ccccc2)cc1)N1CC(N2CCN(C(=O)c3nccs3)CC2)C1` .
75.4

Please report the recorded inhibition in vivo at 30 mg/kg for `O=C(c1ccc(-c2cccc(C(F)(F)F)c2)c(Cl)c1)N1CC(N2CCN(C(=O)c3cscn3)CC2)C1` .
38

Please report the recorded inhibition in vivo at 30 mg/kg for `O=C(c1ccc2c(ccn2-c2ccc(F)c(F)c2)c1)N1CC(N2CCN(C(=O)c3ccc[nH]3)CC2)C1` .
47.1

Please report the recorded inhibition in vivo at 30 mg/kg for `Cn1cc(-c2ccccc2)c2ccc(C(=O)N3CC(N4CCN(C(=O)c5nccs5)CC4)C3)cc21` .
0

---

pIC50: −log10 of the molar value.
As a worked illustration, we turn to pIC50 data collected for purified wild type MGL (wt-MGLL 6H-11-313) (Homo sapiens, UniProt Q99685).
MEASURED_QUANTITY: pIC50

MOLECULE	pIC50
O=C(c1ccc2cnn(Cc3ccc(F)cc3)c2c1)N1CC(N2CCN(C(=O)c3nccs3)CC2)C1 [Cpd 1051]	6.89

I: O=C(c1ccc2c(c1)ncn2C1CCC(F)(F)CC1)N1CC(N2CCN(C(=O)c3cscn3)CC2)C1 [Cpd 834]
II: N#Cc1ccc(-c2ccc(C(=O)N3CC(N4CCN(C(=O)c5nccs5)CC4)C3)cc2)cc1 [Cpd 167]
Of the two listed items, I and II , which carries the larger pIC50 figure? Pick one and reply with its label.
II

I: O=C(c1ccccc1)N1CCN(C2CN(C(=O)c3ccc4c(ccn4-c4ccc(OC(F)(F)F)cc4)c3)C2)CC1 [Cpd 573]
II: O=C(c1ccc(-c2cccc(C(F)(F)F)c2)c(F)c1)N1CC(N2CCN(C(=O)c3cscn3)CC2)C1 [Cpd 1070]
Hi! Which is lower in terms of pIC50, the first one I or the second one II ? Pick one and reply with its label.
I

P: O=C(c1nccs1)N1CCN(C2CN(C(=O)c3ccccc3Nc3ccccc3)C2)CC1 [Cpd 781]
Q: Cc1c(C(=O)N2CC(N3CCN(C(=O)c4nccs4)CC3)C2)[nH]c2ccc(-c3cccnc3F)cc12 [Cpd 1149]
Of the two listed items, P and Q , which carries the larger pIC50 figure? Pick one and reply with its label.
Q

---

Molecular target: mutant MGL (Homo sapiens, UniProt Q99685, L169S/L176S)
Assay: MGL ThermoFluor assay - mutant
Assay type: binding
Conditions: ThermoFluor, compound concentration measured by qNMR, read-out: MGL mutant ThermoFluor qKd (μM) (using qNMR conc.)
MEASURED_QUANTITY: Kd (µM)

COMPOUND	UNIT_OF_MEASUREMENT	Kd
Cc1cn(-c2cccc(F)c2)c2ccc(C(=O)N3CC(N4CCN(C(=O)c5nccs5)CC4)C3)cc12 [Cpd 1368]	µM	0.001
Cc1cn(-c2ccc(C(=O)N3CC(N4CCN(C(=O)c5nccs5)CC4)C3)cc2)c2ccccc12 [Cpd 1413]	µM	0.003
Cc1cc(C(=O)N2CC(N3CCN(C(=O)c4nccs4)CC3)C2)sc1Br [Cpd 723]	µM	0.292
O=C(c1ccc2c(ccn2-c2ccc(F)cc2)c1)N1CC(N2CCN(C(=O)c3ccc(F)s3)CC2)C1 [Cpd 1427]	µM	0.01
Cc1cn(-c2cccc(OC(F)(F)F)c2)c2ccc(C(=O)N3CC(N4CCN(C(=O)c5nccs5)CC4)C3)cc12 [Cpd 1068]	µM	0.002
O=C(c1ccc2c(ccn2-c2ccc(F)cc2)c1)N1CC(N2CCN(C(=O)c3ccc(Cl)o3)CC2)C1 [Cpd 1425]	µM	0.019

1: O=C(c1ccc(-c2cccc(C(F)(F)F)c2)cc1)N1CC(N2CCN(C(=O)c3cc(Br)cs3)CC2)C1 [Cpd 1087]
2: O=C(c1ccc2nn(-c3cccc(OC(F)(F)F)c3)cc2c1)N1CC(N2CCN(C(=O)c3nccs3)CC2)C1 [Cpd 1376]
Of the two listed items, 1 and 2 , which carries the larger Kd figure? Pick one and reply with its label.
1
(1: 0.023 µM, 2: 0.013 µM)
